All figures here come from PubChem BioAssay (NCI).

# experimental-protocol: NCI Yeast Anticancer Drug Screen. Data for the bub3 strain (AID 167)
# applied-conditions: S. cerevisiae bub3 mutant strain, at 5.0 µM (retest, dose inferred, filed as 0.5)
The panel holds about 79,000 compounds, 15% with a hit somewhere; the sample as a whole holds those more often. The source made the active and inactive calls. Cut-off read from the data, not from the text of the source: active = growth inhibition above about 70%; inactive = the rest.
The reply should be one of these categories: true (1) for active, false (0) for inactive

Problem: Hello, I am checking results. What call was entered for Cc1ccc(C(C)(C)c2ccc(C(=O)O)cc2)cc1 ?
Solution: false (0)

Problem: How did this test come out for CN(C)CC1CCc2ccc3ccccc3c2C1=O (configuration not stated) ?
Solution: false (0)

Problem: What did the test return for CCOc1ccc(Nc2nc(C)c(C(=O)/C=C/c3ccc(Cl)cc3Cl)s2)cc1 ?
Solution: false (0)

Problem: Name the outcome recorded for COC1=CC(=O)C(O)=C/C1=C\C=C\c1ccccc1 in the assay.
Solution: false (0)

Problem: Write down the call the test reported for this compound. Item: CC12C(=O)N(CC(=O)O)C(=O)C1(C)C1c3ccccc3C2c2ccc3ccccc3c21 (configuration not stated)
Solution: false (0)

Problem: How was CCOC(=O)c1nc(SC)sc1NC(=O)c1ccccc1Cl classified in this test?
Solution: false (0)

Problem: Outcome logged for O=C(C(/C=N\C(=S)Nc1ccccc1Cl)=C(/O)c1ccccc1)c1ccccc1 in this assay:
Solution: true (1)

Problem: What was the test verdict on Cc1nc2ccc3c(ccc4nc(C)c(N=Nc5ccc(C(=N)N)cc5)c(O)c43)c2c(O)c1N=Nc1ccc(C(=N)N)cc1 ?
Solution: false (0)

Problem: Could you please tell me the result logged for O=C(O)c1c2c(cc3c1CC1(Cc4ccccc4C1=O)C3)CCC2 (configuration not stated) in this assay?
Solution: false (0)

Problem: Please state the recorded outcome for this compound: Cc1ccc(C2=Nc3c(c(C)nn3-c3ccccc3)N=C(C(=O)O)C2)cc1
Solution: false (0)

Problem: For this compound, state the assay outcome: CCOC(=O)c1cc(NC(=O)c2cc(NC(=O)c3cc(NC(=O)c4c(-c5ccccc5)noc4C)cn3C)cn2C)cn1C
Solution: false (0)

Problem: Per the assay record, what outcome was assigned to Cn1c(=S)sc2nc3ccccc3n2c1=S ?
Solution: false (0)

Problem: What call does the record list for COc1ccc2c(N3CCN(C(=O)C(Cl)(Cl)Cl)CC3)cc(C)nc2c1 ?
Solution: false (0)

Problem: Hi, sorry to bother you, what did the test record for Cc1ccc(C)c(N2C(=O)C(=O)c3c(C)ccc(C)c32)c1 ?
Solution: false (0)

Problem: Recorded test outcome, item COc1ccc(-c2csc(C)n2)cc1OC
Solution: false (0)

Problem: Record request — test call for COC(=O)c1cc(-c2ccc(C)cc2)c2c(=O)n(-c3ccccc3)[nH]c2n1
Solution: false (0)

Problem: GET /call?item= OC(c1cc(-c2ccc(Cl)c(Cl)c2)nc2ccccc12)C1CCCCN1 (configuration not stated) returns the recorded outcome of this test.
Solution: true (1)

Problem: State the result this test recorded for CN1CCC(OC(=O)c2ccc3ncccc3c2)CC1 .
Solution: false (0)

Problem: Please share the test call associated with O=C(Nc1cccc(C(F)(F)F)c1)C(Cl)=C(Cl)Cl .
Solution: false (0)

Problem: Check the results log: what was the call for CC1([N+](=O)[O-])C(=O)C2(N3CCCCC3)CCCC2C1c1ccccc1 (configuration not stated) ?
Solution: false (0)

Problem: Please state the recorded outcome for this compound: CCOC(=O)C(Br)C(Br)c1cccc(Cl)c1 (configuration not stated)
Solution: false (0)

Problem: For Cc1nc(-c2ccc(N=Cc3ccc(N(CCOS(C)(=O)=O)CCOS(C)(=O)=O)cc3Cl)cc2)c(C)s1 , which call appears in the assay record?
Solution: false (0)

====

# experimental-protocol: NCI Yeast Anticancer Drug Screen. Data for the bub3 strain (AID 167)
# applied-conditions: S. cerevisiae bub3 mutant strain, at 5.0 µM (retest, dose inferred, filed as 0.5)
The panel holds about 79,000 compounds, 15% with a hit somewhere; the sample as a whole holds those more often. Active and inactive are the calls of the source. No stated cut-off is given here; in the data, active means growth inhibition above about 70%; inactive means the rest.
Outcome field: choose from 1 for active, 0 for inactive

Problem: State the result this test recorded for CCn1c2ccccc2c2ccc(C3C(C(=O)OC)=C(C)NC(C)=C3C(=O)OC)cc21 .
Solution: 0

Problem: Dear colleague, could you share the recorded outcome for CC1=NOC(=O)C1N=Nc1ccc(Br)cc1C (stereo unspecified) when you have a moment?
Solution: 1

Problem: Entry O=c1c2ccccc2c2ccccc2n1O : call = ?
Solution: 1

Problem: Tell me the assay call for Cc1cc(C2c3ccccc3-c3ccccc32)cc(C)c1O please.
Solution: 0

Problem: What was the test verdict on CNS(=O)(=O)c1ccccc1C=C(c1ccccc1)c1ccccc1 ?
Solution: 0

Problem: Given CC(C)(C)CC(C)(C)NCc1cc(Cl)cc(Cc2cc(Cl)ccc2O)c1O , state the outcome it received in this test.
Solution: 0

====

So I've got a bunch of compounds here, and I need their growth inhibition values.
# experimental-protocol: NCI Yeast Anticancer Drug Screen. Data for the mec2-1 strain (AID 157)
# applied-conditions: S. cerevisiae mec2-1 strain, at 50.0 µM, active compounds read high
This is part of a sample that, as a whole, favours compounds with a hit. Of some 79,000 tested, about 15% had one in any assay.
Expressed in %, but write only the number.

Problem: Let me know recorded growth inhibition for CC(N)C1C(C)CC2C3CC=C4CC(O)CCC4(C)C3CCC21C (configuration not stated) , thanks.
Solution: 25.1

Problem: Note growth inhibition for the compound shown: c1ccc(-c2ccc(-c3cnc(-c4ccc(-c5ccccc5)cc4)o3)cc2)cc1
Solution: 53.4

Problem: Query growth inhibition for COc1ccc2c(c1)[n+]([O-])c(-c1ccc(C)cc1)c(N)[n+]2[O-]
Solution: 99.5

Problem: Return the recorded growth inhibition value; entry: C=C1C(=O)OC(C)(C)C1c1ccc(Cl)c(Cl)c1 (configuration not stated)
Solution: 99.8

Problem: Give the reported growth inhibition for this compound. O=C1CSC(=Nc2ccc(F)cc2F)N1Cc1cccs1
Solution: 78.2

Problem: For the compound CCc1c(C)[nH]c(-c2csc(N)n2)c1C , report growth inhibition.
Solution: 83.9

Problem: Report growth inhibition for Oc1c(Cl)c(Cl)c(O)c2c1CCCC2
Solution: 99.5

Problem: Consider the compound COc1ccc(C2CC(c3sc(Nc4ccc(C)cc4)nc3C)=NN2)cc1 (configuration not stated) and give its recorded growth inhibition.
Solution: 62

Problem: Please look at this compound and report its growth inhibition: COc1ccc(CCCCI)cc1
Solution: 95.2

Problem: Answer with reported growth inhibition of Cc1ccc2[nH]c3c(c2c1)CCC/C3=N/N=C(N)N
Solution: 83

Problem: Determine its reported growth inhibition: Cc1ccc(Cc2n[nH]c(=O)[nH]2)cc1
Solution: -45.1

Problem: # return recorded growth inhibition for input O=S(Nc1ccccc1Br)c1ccccc1 (configuration not stated)
Solution: 24.1

====

# experimental-protocol: NCI Yeast Anticancer Drug Screen. Data for the rad50 strain (AID 155);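 note: 0% = growth of vehicle-only cultures of the same strain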
# applied-conditions: S. cerevisiae rad50 strain growth inhibition; at 50.0 µM (retest, dose inferred, filed as 5.0); active compounds read high
About 79,000 compounds went through this panel and 15% of them were active in at least one assay; those are over-represented in the sample as a whole. Where a SMILES comes first, the peptide text is derived from it. [ ]: non-standard residue; d: D form. The star is where a group is joined. Phe(4-NO2) = N[CH](Cc1ccc([N+](=O)[O-])cc1)C(=O)O; Boc = CC(C)(C)OC(=O)*
Please use TRUE whenever growth inhibition is not below 60%, and FALSE whenever it is.

Problem: Test whether the compound Cc1cc(C(=O)O)c(C)c2c1sc1ccccc12 records growth inhibition of 60% or higher.
Solution: TRUE

Problem: In plain terms: is recorded growth inhibition at least 60% for O=C(Nn1c(=O)c(=O)oc2ccccc21)C(F)(F)F ?
Solution: TRUE

Problem: Please tell me: is the compound CNC(=O)CCC(NC(=O)OC(C)(C)C)C(=O)NC(Cc1ccc([N+](=O)[O-])cc1)C(=O)NCC(=O)NC (configuration not stated) (Boc-Glu(NHMe)-[Phe(4-NO2)]-Gly-NHMe; configuration not given here) at or over 60% in terms of growth inhibition?
Solution: FALSE

Problem: Reported growth inhibition at or above 60%? Cc1cc(OCCl)ccc1[N+](=O)[O-]
Solution: FALSE

Problem: hey, is growth inhibition for this one >= 60%? Cc1cccnc1NC(=S)Nc1ccccc1Cl
Solution: TRUE

Problem: hey, is growth inhibition for this one >= 60%? CP(=O)(c1ccccc1)c1ccccc1
Solution: FALSE

Problem: Determine whether this compound has growth inhibition no lower than 60%: CC(=O)Nc1ccc(/C=N\NC(=O)c2ccco2)cc1
Solution: FALSE

Problem: Decide: is the reported value of growth inhibition for CCCCCCCCCCCCCCCCN equal to or greater than 60%?
Solution: TRUE

Problem: Please check the record CCCCCC(C)NCC(O)Cc1ccc(OCCCC)cc1 (configuration not stated) and state if its growth inhibition is at or above 60%.
Solution: TRUE

Problem: API: above_or_equal(metric=growth inhibition, cutoff=60%) for item C#CC(C)(C)OC(C)=O
Solution: FALSE

Problem: Check if growth inhibition >= 60% (inclusive). Item: C=CC(=O)N1C/C(=C\c2ccc(F)cc2)C(=O)/C(=C/c2ccc(F)cc2)C1
Solution: TRUE

Problem: Could you verify whether the entry CC(=O)SC(SC(C)=O)SC(C)=O shows growth inhibition of no less than 60%?
Solution: TRUE

Problem: Given O=c1sc(=S)[nH]c2ccccc12 , state whether its growth inhibition is at least 60%.
Solution: FALSE

Problem: Does the reported growth inhibition for Nc1ncnc2c1ncn2C1OCC(OCc2ccccc2)C(OCc2ccccc2)C1OCc1ccccc1 (configuration not stated) fall at or above the 60% mark?
Solution: TRUE

Problem: Item Cc1ccc([N+](=O)[O-])c2c(NCCCN(C)C)c3ccccc3nc12 with growth inhibition of 60% or above?
Solution: TRUE

Problem: State whether the measured growth inhibition reaches 60%, counting equality as reaching it, for COc1ccc(C2C3=C(CC(C)(C)CC3=O)Oc3cc4c(cc32)OCO4)c(OC)c1 (configuration not stated)
Solution: FALSE

Problem: In plain terms: is recorded growth inhibition at least 60% for CCOC(=O)C(C(=O)OCC)c1ccc([N+](=O)[O-])o1 ?
Solution: TRUE

Problem: Form field: growth inhibition at least 60%? Entry: N#C/C(=C\NC(=S)Nc1cc(Cl)ccc1Cl)c1nc2ccccc2s1
Solution: FALSE

Problem: Can c1ccc(SSc2ccccc2)cc1 be said to have growth inhibition at or above 60%?
Solution: TRUE

Problem: Is the recorded value of growth inhibition equal to or greater than 60% for this compound? CCCCCCCCCCCCCCCCOc1ccc(S(=O)(=O)N/N=c2/sc3ccc(S(=O)(=O)O)cc3n2C)cc1C(=O)O
Solution: TRUE

Problem: Check if growth inhibition >= 60% (inclusive). Item: Clc1nnc(Cl)s1
Solution: FALSE

Problem: Evaluate O=C1C=CC(=C(c2ccccc2)c2ccc(O)cc2)C=C1 : growth inhibition at minimum 60%?
Solution: TRUE

Problem: Form field: growth inhibition at least 60%? Entry: Cc1cc(-c2ccc(O)c(C)c2)ccc1O
Solution: TRUE

Problem: Assess whether reported growth inhibition for O=C(C(/C=N\C(=S)Nc1ccccc1Cl)=C(/O)c1ccccc1)c1ccccc1 sits at 60% or higher.
Solution: TRUE

Problem: hey, is growth inhibition for this one >= 60%? COc1ccc(NC(=O)C(Cc2ccccc2)NC(C)=O)cc1 (configuration not stated)
Solution: FALSE

Problem: Dear colleague, could you confirm whether C=CCc1cc(Cl)ccc1O has growth inhibition at or above 60%?
Solution: FALSE

Problem: Could you please find out whether CCN(CC)CCCNc1ccc([N+](=O)[O-])c2nc3ccc(OC)cc3c(N)c12 has growth inhibition that meets 60% or exceeds it?
Solution: TRUE

Problem: // inclusive: growth inhibition at least 60%? input: O=P(O)(O)Oc1c(O)c2ccccc2c2ccccc12
Solution: TRUE

Problem: Determine whether measured growth inhibition meets or exceeds 60% for Cc1ncn(-c2ccccc2O)c1C
Solution: FALSE

Problem: Exam item: decide whether the reported growth inhibition for CC(C)C1(C)C(C#N)(C#N)C1(C#N)C#N is at least 60%.
Solution: TRUE

Problem: Confirm if growth inhibition reported for the compound O=S(=O)(ON=C1C=CC(=NOS(=O)(=O)c2ccccc2)C=C1)c1ccccc1 is 60% or above.
Solution: FALSE

Problem: Check the entry CSC(=S)SC(SC)S(C)(=O)=O (configuration not stated) : does growth inhibition equal or exceed 60%?
Solution: FALSE

Problem: Could you tell me if the measured growth inhibition of Cc1cc(NC(=S)SCc2ccc(Cl)cc2)c([N+](=O)[O-])cc1C reaches 60% or more?
Solution: TRUE

Problem: Decide: is the reported value of growth inhibition for CC(C)CCCC(C)C1CCC2C3CCC4=CC(O)CCC4(C)C3CCC12C (configuration not stated) equal to or greater than 60%?
Solution: TRUE

Problem: # check: growth inhibition of CC(=O)SCC(=O)Nc1ccc(Cl)cc1 is greater than or equal to 60%
Solution: TRUE

Problem: Check if growth inhibition >= 60% (inclusive). Item: CN(C)CC1CCc2ccc3ccccc3c2C1=O (configuration not stated)
Solution: FALSE

Problem: Decide: is the reported value of growth inhibition for COc1ccc(C(CC(=O)c2ccccc2)Sc2ccccc2N)cc1 (configuration not stated) equal to or greater than 60%?
Solution: FALSE

Problem: Please check the record CCCCCC/C=C\CCCCCCCCCc1c(O)c(OC)cc(O)c1CN(C)C and state if its growth inhibition is at or above 60%.
Solution: TRUE

Problem: Threshold query (growth inhibition >= 60%) on CCCCCCCCC/C=C1\CCC(CN(C)C)C1=O (configuration not stated)
Solution: TRUE

Problem: Identify whether the reported growth inhibition of the following compound is 60% or greater: COc1ccc2c(Cc3ccc(O)cc3)cncc2c1O
Solution: FALSE

Problem: Would you say O=C1c2ccccc2S(=O)(=O)CC1Br (configuration not stated) shows growth inhibition at minimum 60%?
Solution: TRUE

Problem: Check this compound for growth inhibition at or above 60%: COc1ccc(Cc2ccccc2C(=O)O)c2ccccc12
Solution: TRUE

Problem: In plain terms: is recorded growth inhibition at least 60% for CCOC(=O)C12CCSC1C1(C#N)C(C#N)=CC2(N=P(c2ccccc2)(c2ccccc2)c2ccccc2)n2c(=O)n(-c3ccccc3)c(=O)n21 (configuration not stated) ?
Solution: FALSE

Problem: Assess whether reported growth inhibition for c1ccc(N2CCN(c3ccccc3)C2Cc2c[nH]c3ccccc23)cc1 sits at 60% or higher.
Solution: TRUE

Problem: Quick check: does CCCCCCCSCC1C(=O)C23CC1CCC2C12COC(O)C1C(C)(C)C(O)CC2OC3=O (configuration not stated) have growth inhibition greater than or equal to 60%?
Solution: TRUE

Problem: // inclusive: growth inhibition at least 60%? input: COC(=O)Nc1nc2ccc(CCC(=O)c3c(C)oc(C)c3-c3ccc(NC(C)=O)cc3)cc2[nH]1
Solution: TRUE
